assay: Stability indicating HPLC assay and related substances on storage (Example 3); assay type: physicochemical; conditions: 3 months, 40° C./75% RH
# M6G Assay, Corrected for the salt form values compiled below
Attribute measured: M6G Assay, Corrected for the salt form (% w/w)

CN1CCC23c4c5ccc(O)c4OC2C(OC2OC(C(=O)O)C(O)C(O)C2O)C=CC3C1C5.O=P(O)(O)O (stereo not shown) [Morphine-6-glucuronide phosphate]
112.01
CN1CC[C@]23c4c5ccc(O)c4O[C@H]2[C@@H](O[C@@H]2O[C@H](C(=O)O)[C@@H](O)[C@H](O)[C@H]2O)C=C[C@H]3[C@H]1C5.Cl [Morphine-6-glucuronide hydrochloride]
66.26
CN1CC[C@]23c4c5ccc(O)c4O[C@H]2[C@@H](O[C@@H]2O[C@H](C(=O)O)[C@@H](O)[C@H](O)[C@H]2O)C=C[C@H]3[C@H]1C5 [Morphine-6-glucuronide base, morphine-6-β-D-glucuronide]
97.15
Br.CN1CC[C@]23c4c5ccc(O)c4O[C@H]2[C@@H](O[C@@H]2O[C@H](C(=O)O)[C@@H](O)[C@H](O)[C@H]2O)C=C[C@H]3[C@H]1C5 [Morphine-6-glucuronide hydrobromide]
100.90
CN1CCC23c4c5ccc(O)c4OC2C(OC2OC(C(=O)O)C(O)C(O)C2O)C=CC3C1C5.CN1CCC23c4c5ccc(O)c4OC2C(OC2OC(C(=O)O)C(O)C(O)C2O)C=CC3C1C5.O=C(O)C=CC(=O)O (stereo not shown) [Morphine-6-glucuronide maleate]
88.63
CN1CCC23c4c5ccc(O)c4OC2C(OC2OC(C(=O)O)C(O)C(O)C2O)C=CC3C1C5.CN1CCC23c4c5ccc(O)c4OC2C(OC2OC(C(=O)O)C(O)C(O)C2O)C=CC3C1C5.O=S(=O)(O)O (stereo not shown) [Morphine-6-glucuronide sulphate]
75.64
CN1CCC23c4c5ccc(O)c4OC2C(OC2OC(C(=O)O)C(O)C(O)C2O)C=CC3C1C5.CN1CCC23c4c5ccc(O)c4OC2C(OC2OC(C(=O)O)C(O)C(O)C2O)C=CC3C1C5.O=C(O)C=CC(=O)O (stereo not shown) [Morphine-6-glucuronide fumarate]
89.37

====

assay: Stability indicating HPLC assay and related substances on storage (Example 3); format: physicochemical; settings: 1 month, 60° C.
Attribute measured: Total Related Substances (%)

CN1CC[C@]23c4c5ccc(O)c4O[C@H]2[C@@H](O[C@@H]2O[C@H](C(=O)O)[C@@H](O)[C@H](O)[C@H]2O)C=C[C@H]3[C@H]1C5 [Morphine-6-glucuronide base, morphine-6-β-D-glucuronide]
2.31
CN1CCC23c4c5ccc(O)c4OC2C(OC2OC(C(=O)O)C(O)C(O)C2O)C=CC3C1C5.CN1CCC23c4c5ccc(O)c4OC2C(OC2OC(C(=O)O)C(O)C(O)C2O)C=CC3C1C5.O=C(O)C=CC(=O)O (stereo not shown) [Morphine-6-glucuronide fumarate]
3.85
CN1CCC23c4c5ccc(O)c4OC2C(OC2OC(C(=O)O)C(O)C(O)C2O)C=CC3C1C5.CN1CCC23c4c5ccc(O)c4OC2C(OC2OC(C(=O)O)C(O)C(O)C2O)C=CC3C1C5.O=S(=O)(O)O (stereo not shown) [Morphine-6-glucuronide sulphate]
18.25
CN1CCC23c4c5ccc(O)c4OC2C(OC2OC(C(=O)O)C(O)C(O)C2O)C=CC3C1C5.CN1CCC23c4c5ccc(O)c4OC2C(OC2OC(C(=O)O)C(O)C(O)C2O)C=CC3C1C5.O=C(O)C=CC(=O)O (stereo not shown) [Morphine-6-glucuronide maleate]
6.09
Br.CN1CC[C@]23c4c5ccc(O)c4O[C@H]2[C@@H](O[C@@H]2O[C@H](C(=O)O)[C@@H](O)[C@H](O)[C@H]2O)C=C[C@H]3[C@H]1C5 [Morphine-6-glucuronide hydrobromide]
1.20
CN1CCC23c4c5ccc(O)c4OC2C(OC2OC(C(=O)O)C(O)C(O)C2O)C=CC3C1C5.O=P(O)(O)O (stereo not shown) [Morphine-6-glucuronide phosphate]
5.43
CN1CC[C@]23c4c5ccc(O)c4O[C@H]2[C@@H](O[C@@H]2O[C@H](C(=O)O)[C@@H](O)[C@H](O)[C@H]2O)C=C[C@H]3[C@H]1C5.Cl [Morphine-6-glucuronide hydrochloride]
20.94
